# credit: ChEMBL document CHEMBL1125844

This section presents molecules with their documented inhibition values.
target: Human immunodeficiency virus type 1 reverse transcriptase (Human immunodeficiency virus 1) (UniProt Q72547); assay: In vitro inhibitory activity against human immunodeficiency virus type 1 (HIV-1) reverse transcriptase (RT) at a concentration of 10 ug/mL.
Dear colleague, please return just the value in %, with no unit written.

Answered cases to consult:
                                 compound  readout_kind  result_value
0          CCN1c2ccccc2N(C)C(=O)c2cccnc21    inhibition           100
1       CCN1c2ccc(O)cc2N(C)C(=O)c2cccnc21    inhibition            47
2  Cc1ccc2c(c1)N(C)C(=O)c1c(C)cc(C)nc1N2C    inhibition            49
3       CCN1c2ncccc2C(=O)N(C)c2ccc(C)nc21    inhibition           100
4      CCN1c2ccc(CO)cc2N(C)C(=O)c2cccnc21    inhibition            78
5         Cc1ccnc2c1NC(=O)c1cccnc1N2C1CC1    inhibition           100

Ask: Any idea what its inhibition is? The molecule is CC[C@@H](C)N1c2ncccc2NC(=O)c2cccnc21
Reply: 85

Ask: Follow-up entry: Cc1cc(C)c2c(n1)Nc1ccccc1C(=O)N2
Reply: 51

Ask: What would you report for CCN1c2nc(C)ccc2C(=O)N(C)c2cccnc21 ?
Reply: 65

Ask: Request: CCN1c2cc(Cl)ccc2N(C)C(=O)c2cccnc21
Reply: 100

Ask: Moving on to the next molecule: CCN1c2ccccc2C(=O)N(C)c2cccnc21
Reply: 99

Ask: Then CC(C)(C)OC(=O)CN1C(=O)c2cccnc2Nc2ccccc21 ?
Reply: 39

###

molecular target: Human immunodeficiency virus type 1 reverse transcriptase (Human immunodeficiency virus 1) (UniProt Q72547); experiment: In vitro inhibitory activity against human immunodeficiency virus type 1 (HIV-1) reverse transcriptase (RT) at a concentration of 10 ug/mL.
Output class 1 for inhibition not less than 80%; output class 0 otherwise.

                                   compound    label
0           CN1C(=O)c2cccnc2N(CCO)c2ccccc21  class 0
1             COCCN1C(=O)c2cccnc2Nc2ccccc21  class 0
2  CCN1c2cccc(C)c2N(Cc2ccccc2)C(=O)c2cccnc21  class 0
3  CCN1c2ccccc2N(C)C(=O)c2cc(C(F)(F)C(F)(F)F)cnc21  class 0
4         CCN1c2nc(C)c(C)cc2NC(=O)c2cccnc21  class 1
5     CCOC(=O)CN1c2ccccc2N(C)C(=O)c2cccnc21  class 0
6    CCN1c2cc(Cl)c(Cl)cc2N(C)C(=O)c2cccnc21  class 1
7             CN1C(=O)c2ccccc2N(C)c2ccccc21  class 0
8        CCN1c2ccc(OC)cc2N(C)C(=O)c2cccnc21  class 1
9            O=C1Nc2cccnc2N(C2CC2)c2ncccc21  class 1

Ask: Exam item: decide whether the reported inhibition for CC(C)N1c2ncccc2NC(=O)c2cccnc21 is at least 80%.
Reply: class 1

Ask: Similarly, CCN1C(=O)c2ccccc2N(CC)c2ncccc21 ?
Reply: class 1

Ask: Same question for CN(C)CCN1C(=O)c2cccnc2N(C2CC2)c2ncccc21 please.
Reply: class 0

Ask: Same thing, different compound: O=C1Nc2ccccc2Nc2ncccc21
Reply: class 0

Ask: Try this compound too: CCN1c2ncccc2C(=O)Nc2c(C)ccnc21
Reply: class 1
